System: µP-hPSC colonies (H9) under mesoendoderm induction
Assay: µP-hPST: mesoendoderm pattern disruption in µP-hPSC colonies and two-step teratogen classification
Conditions: 3 days of compound exposure, in words
Property: Mesoendoderm pattern disruption seen in T fluorescent images

# Smiles Record, Result
records = [
    ("CC/C(=C(/CC)c1ccc(O)cc1)c1ccc(O)cc1", "promote cell migration"),
    ("CC[C@H](C)C(=O)O[C@H]1C[C@@H](C)C=C2C=C[C@H](C)[C@H](CC[C@@H]3C[C@@H](O)CC(=O)O3)[C@H]21", "promote cell migration"),
]

----------
System: human embryonic cell line H9
Assay: Cytotoxicity assay (MTS), embryonic cytotoxicity
Assay type: cell-based
Details: H9 cells, 3 days, 25% inhibitory concentration
Property: IC25H9 (µg/mL)
Numbers only, in µg/mL.

Use these answered entries as a reference point.
# Molecule, IC25H9 [µg/mL]
data = [
    ("O=C1O[C@H]([C@@H](O)CO)C(O)=C1O", 105),
    ("COc1ccccc1Oc1c(NS(=O)(=O)c2ccc(C(C)(C)C)cc2)nc(-c2ncccn2)nc1OCCO", 43.8),
    ("COc1cccc2c1C(=O)c1c(O)c3c(c(O)c1C2=O)C[C@@](O)(C(=O)CO)C[C@@H]3O[C@H]1C[C@H](N)[C@H](O)[C@H](C)O1", 0.0002),
    ("CCN(CC)CCNC(=O)c1cc(Cl)c(N)cc1OC [Metoclopramide]", 162),
]

response.value for "COc1cc2c(Nc3ccc(Br)cc3F)ncnc2cc1OCC1CCN(C)CC1" (field: IC25H9) = 0.3

----------
System: µP-hPSC colonies (H9) under mesoendoderm induction
Assay: µP-hPST: mesoendoderm pattern disruption in µP-hPSC colonies and two-step teratogen classification
Details: two-step classification rule
Property: Teratogenicity in µP-hPST

Solved cases (4 shown):
# Compound, Teratogenicity in µP-hPST
measured = [
    ("NNC(=O)c1ccncc1", "NON"),
    ("CN(C)CCOC(c1ccccc1)c1ccccc1 [Diphenhydramine]", "NON"),
    ("CC/C(=C(/CC)c1ccc(O)cc1)c1ccc(O)cc1", "NON"),
    ("C[C@](N)(Cc1ccc(O)c(O)c1)C(=O)O", "NON"),
]

Can you give me Teratogenicity in µP-hPST for all of these, one by one?
1. COc1cc2ncnc(Nc3ccc(F)c(Cl)c3)c2cc1OCCCN1CCOCC1
2. CC1(C)S[C@@H]2[C@H](NC(=O)[C@H](N)c3ccc(O)cc3)C(=O)N2[C@H]1C(=O)O
3. CN(C)CCOC(C)(c1ccccc1)c1ccccn1 (stereo not shown)

Response:
["TER", "NON", "NON"]

Required: Teratogenicity in µP-hPST, one value per compound below.
1. N[C@@H](CC(=O)N1CCn2c(nnc2C(F)(F)F)C1)Cc1cc(F)c(F)cc1F
2. O=C1Cc2cc(CCN3CCN(c4nsc5ccccc45)CC3)c(Cl)cc2N1

Response:
["NON", "TER"]

# lookup: NS(=O)(=O)c1cc(C(=O)O)c(NCc2ccco2)cc1Cl [Furosemide] on µP-hPSC colonies (H9) under mesoendoderm induction, Teratogenicity in µP-hPST = TER

----------
Tested on: human embryonic cell line H9
Test: Cytotoxicity assay (MTS), embryonic cytotoxicity
Type: cell-based
Details: H9 cells, 3 days, 25% inhibitory concentration
I'd be grateful if you could share measured IC25H9 for these entries.
Answers are plain numbers, in µg/mL.

Sample answers from the record:
# Compound, Subject Of Test, IC25H9 / µg/mL
records = [
    ("Cn1c(=O)c2c(ncn2C)n(C)c1=O [Caffeine]", "human embryonic cell line H9", 85.4),
    ("CS(=O)(=O)OCCCCOS(C)(=O)=O [Busulfan]", "human embryonic cell line H9", 0.5),
]

Dear colleague, could you please provide IC25H9 for the compounds listed below?
1. CC(=O)Nc1ccc(O)cc1 [Acetaminophen]
2. Cc1ccc(NC(=O)c2ccc(CN3CCN(C)CC3)cc2)cc1Nc1nccc(-c2cccnc2)n1 [Imatinib]
3. COc1cc2ncnc(Nc3ccc(F)c(Cl)c3)c2cc1OCCCN1CCOCC1 [Gefitinib]
4. COc1ccc2nc([S@@+]([O-])Cc3ncc(C)c(OC)c3C)[nH]c2c1 [Esomeprazole]
5. CN(C)CCOC(C)(c1ccccc1)c1ccccn1 (centres unmarked) [Doxylamine]
6. Nc1nc2ncc(CNc3ccc(C(=O)N[C@@H](CCC(=O)O)C(=O)O)cc3)nc2c(=O)[nH]1 [Folic acid]

Response:
171
19.5
4.6
38.9
87
888

Give one value of IC25H9 per listed compound.
1. N[C@@H](CC(=O)N1CCn2c(nnc2C(F)(F)F)C1)Cc1cc(F)c(F)cc1F [Sitagliptin]
2. NNC(=O)c1ccncc1 [Isoniazid]
3. CC/C(=C(/CC)c1ccc(O)cc1)c1ccc(O)cc1 [Diethylstilbestrol]
4. CCOC(=O)N1CCC(=C2c3ccc(Cl)cc3CCc3cccnc32)CC1 [Loratadine]
5. Cn1cc[nH]c1=S [Methimazole]
6. CCN(CC)CCNC(=O)c1c(C)[nH]c(/C=C2\C(=O)Nc3ccc(F)cc32)c1C [Sunitinib]

Response:
[359, 370, 8.8, 24, 252, 0.89]

----------
System: adult human dermal fibroblasts (aHDF)
Test: Cytotoxicity assay (MTS), general cytotoxicity
Type: cell-based
Conditions: aHDF cells, 3 days, 25% inhibitory concentration
For each of the compounds below, state its log10 IC25aHDF.
Could you please treat all values as log10 of IC25aHDF in µg/mL?

Worked set:
# Compound, log10 IC25aHDF
data = [
    ("NC(=O)N1c2ccccc2C=Cc2ccccc21 [Carbamazepine]", 1.45),
    ("Nc1nc2c(ncn2COCCO)c(=O)[nH]1", 2.45),
    ("NS(=O)(=O)c1cc(C(=O)O)c(NCc2ccco2)cc1Cl [Furosemide]", 1.48),
    ("NNC(=O)c1ccncc1", 2.69),
    ("CC[C@H](C)C(=O)O[C@H]1C[C@@H](C)C=C2C=C[C@H](C)[C@H](CC[C@@H]3C[C@@H](O)CC(=O)O3)[C@H]21", -0.17),
    ("N[C@@H](CC(=O)N1CCn2c(nnc2C(F)(F)F)C1)Cc1cc(F)c(F)cc1F", 1.89),
    ("COc1cc2c(Nc3ccc(Br)cc3F)ncnc2cc1OCC1CCN(C)CC1", 0.04),
]

Next compound, log10 IC25aHDF to be filled in.
Documented log10 IC25aHDF of "CS(=O)(=O)OCCCCOS(C)(=O)=O" : 1.28

----------
Test system: adult human dermal fibroblasts (aHDF)
Assay: Cytotoxicity assay (MTS), general cytotoxicity
Type: cell-based
Conditions: aHDF cells, 3 days, 25% inhibitory concentration
Property: IC25aHDF

# Compound, IC25aHDF
measured = [
    ("C[C@](N)(Cc1ccc(O)c(O)c1)C(=O)O", "15.9 µg/mL"),
    ("COc1ccccc1Oc1c(NS(=O)(=O)c2ccc(C(C)(C)C)cc2)nc(-c2ncccn2)nc1OCCO", "19.9 µg/mL"),
    ("COc1cc2ncnc(Nc3ccc(F)c(Cl)c3)c2cc1OCCCN1CCOCC1", "1.66 µg/mL"),
    ("Cn1c(=O)c2c(ncn2C)n(C)c1=O", "129 µg/mL"),
    ("CCN(CC)CCNC(=O)c1cc(Cl)c(N)cc1OC [Metoclopramide]", "154 µg/mL"),
]

The following compounds each have a reported value; give each one's IC25aHDF.
1. CN(C)CCOC(C)(c1ccccc1)c1ccccn1 (stereo not shown)
2. COc1ccc2nc([S@@+]([O-])Cc3ncc(C)c(OC)c3C)[nH]c2c1
3. Nc1nc2ncc(CNc3ccc(C(=O)N[C@@H](CCC(=O)O)C(=O)O)cc3)nc2c(=O)[nH]1
4. Cn1cc[nH]c1=S
5. Cc1ncc(C[n+]2csc(CCO)c2C)c(N)n1

Response:
1: 45 µg/mL; 2: 42.1 µg/mL; 3: 894 µg/mL; 4: >1000 µg/mL; 5: >1000 µg/mL

----------
System: µP-hPSC colonies (H9) under mesoendoderm induction
Assay: µP-hPST: mesoendoderm pattern disruption in µP-hPSC colonies and two-step teratogen classification
Conditions: two-step classification rule
Property: Teratogenicity in µP-hPST (in words)

Please review the following examples before continuing.
# Compound, Teratogenicity in µP-hPST (in words)
measured = [
    ("CC[C@H](C)C(=O)O[C@H]1C[C@@H](C)C=C2C=C[C@H](C)[C@H](CC[C@@H]3C[C@@H](O)CC(=O)O3)[C@H]21", "correctly classify"),
    ("CC(C)(S)[C@@H](N)C(=O)O", "Teratogen"),
    ("CCCC(CCC)C(=O)O", "Teratogen"),
    ("O=C1CCC(N2C(=O)c3ccccc3C2=O)C(=O)N1 (stereo not drawn) [Thalidomide]", "Teratogen"),
]

// switching to the query compound
compound "COc1ccccc1Oc1c(NS(=O)(=O)c2ccc(C(C)(C)C)cc2)nc(-c2ncccn2)nc1OCCO" , Teratogenicity in µP-hPST (in words) observed: correctly classify
